So I've got a bunch of compounds here, and I need their growth values.
- System: OVCAR-4 ovarian
- ASSAY EXPLANATION: NCI-60 one-dose screen, 48 h (100 = growth as untreated, 0 = no growth, -100 = all killed)
- REPORTED CONDITIONS: 10 µM unless noted
- Protocol: Growth inhibition of the OVCAR-4 human tumor cell line is measured as a screen for anti-cancer activity. Cells are grown in 96 well plates and exposed to the test compound for 48 hours. Compounds are tested at a single concentration, which is 10^-5 M for most compounds. The reported endpoint is percent growth (GI% or GIPRCNT), where numbers from 0 - 100% represent growth inhibition, and numbers from -100% - 0 represent cell death. For example, a value of 40 represents 60% growth inhibition. […]
About 83,000 compounds went through this panel and 20% of them were active in at least one assay; those are over-represented in the sample as a whole.
The figure you give is taken to be in %; do not add the unit.

Recorded result, COc1cc2nc(Cl)nc(Nc3cccc(C4=Nc5c(N)nc(N)nc5NC(c5ccc6c(c5)OCO6)C4)c3)c2cc1OC (stereo not drawn) , growth: 97

Recorded result, `O=C(c1ccc(O)cc1)[C@@H]1CN[C@@]2(C(=O)Nc3ccccc32)[C@H]1c1ccc(F)cc1` , growth: 102

Recorded result, `FC(F)(F)c1cc(Nc2cccc(Oc3ccc(NC4=NCCN4)nc3)c2)ccc1Cl` , growth: 28.2

The values you see were collected from PubChem BioAssay (NCI).
